assay.summary: interference with biotin-avidin bead interaction – biochemical, flow cytometry, bead-based, counter-screen for RGS protein interaction modulators (AID 1783);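 further: median green fluorescence of gated singlet beads compared with DMSO control wells; 0% = DMSO wells and 100% = complete loss of bead fluorescence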
experimental.conditions: streptavidin beads, fluorescein-biotin binding; at 10 µM, stronger effect = higher value
This is one part of the list.
measured.endpoint: inhibition (%)

{"molecule": "O=C(OCC1O[C@@H](OC(=O)c2cc(O)c(O)c(O)c2)[C@@H](OC(=O)c2cc(O)c(O)c(O)c2)[C@@H](OC(=O)c2cc(O)c(O)c(O)c2)[C@@H]1OC(=O)c1cc(O)c(O)c(O)c1)c1cc(O)c(O)c(O)c1 (stereo not given in full)", "meas.value": -1.9}
{"molecule": "COc1ccc(CCNC(=O)c2cc3sccc3n2C)cc1OC", "meas.value": 0.7}
{"molecule": "Cc1c(Br)cc(C(=O)N2CCCCCC2)c(C)c1C", "meas.value": -0.3}
{"molecule": "O=C(Nc1ccccc1)c1cc2ccccc2[nH]1", "meas.value": 0.6}
{"molecule": "O=C(CN1CCOCC1)Nc1ccccc1", "meas.value": 2.3}
{"molecule": "CC(=O)c1ccc(NC(=S)NC(=O)CC(C)C)cc1", "meas.value": 3.2}
{"molecule": "COc1ccccc1CCNC(=O)CSc1nnc2ccc(-c3cccnc3)nn12", "meas.value": -0.7}
{"molecule": "CCOc1ccc(NC(=O)CSc2nc3ccccc3c(=O)n2Cc2cccs2)cc1", "meas.value": 1.1}
{"molecule": "O=C(CSc1ccc2nnc(-c3ccccc3)n2n1)N1CCCc2ccccc21", "meas.value": 2}
{"molecule": "C/C(=C/C(=O)N1CCN(C)CC1)C(=O)O", "meas.value": 0.5}
